- experimental.target: T1, human CD27 (human, UniProt P26842 21-260)
- T1 construct: also called hCD27; HsCD27
- experiment: flow cytometry MFI, CD8+ T cells of human PBMC, N=2 donors
measure.name: EC50 (pM)
Answer format: numeric, pM implied, no suffix.

binder="Mouse Human Chimera CD27 131A-hIgG1 (antibody, V domains shown, also called chimeric mouse-human hCD27.131A huIgG1) VH: QIQLVQSGPELKKPGETVKISCKASGYTFTNYGMNWVKQAPGKGLKWMGWINTNTGEPTYAEEFKGRFAFSLETSATTAYLQINNLKNEDTATYFCAREGDAMDYWGQGTSVTVSS VL: QIVLTQSPAIMSASPGEKVTMTCSASSSVSYMHWYQQKSGTSPKRWIYDTSKLASGVPARFSGSGSGTSYSLTISSMEAEDAATYYCQQWNSYPFTFGSGTKLEIK" measurement_unit=pM data_value=64.9

Let us examine a further case.
Challenge: Request the reported EC50 associated with hCD27.131A VH8VL7 huIgG1 (antibody, V domains shown) VH: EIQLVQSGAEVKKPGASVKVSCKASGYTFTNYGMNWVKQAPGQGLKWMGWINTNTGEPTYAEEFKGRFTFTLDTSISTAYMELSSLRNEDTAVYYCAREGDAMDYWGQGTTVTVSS VL: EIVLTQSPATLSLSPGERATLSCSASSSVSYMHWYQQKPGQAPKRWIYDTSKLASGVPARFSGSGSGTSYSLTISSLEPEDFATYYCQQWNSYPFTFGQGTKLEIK
Response given: 110
